target: Taq 1C2 (Thermus aquaticus) (UniProt P19821); assay: EMSA; conditions: 3' end blocked with dideoxy TMP (3' ddT; unclear whether the printed 3' T is the ddT or it is added); 0.25 nM hairpin, 0.5-1000 nM enzyme, 1x Taq buffer (50 mM KCl for wild type, 95 mM KCl for mutants; full composition and pH not stated for this assay), 37 C …
Readout: Kd

seq_text="CTCCAGACACGACGCAGTTGCCCGATGGTCGACGTTCGCGAAAGCGAACGTCGACCATCGGGCAACT [hairpin primer-template]" result="1.9 nM"

* * *

target: Taq 42 G59W;L245M;L375V;E507K;K508R;E734G;F749I (Thermus aquaticus); test: EMSA; conditions: 3' end blocked with dideoxy TMP (3' ddT; unclear whether the printed 3' T is the ddT or it is added); 0.25 nM hairpin, 0.5-1000 nM enzyme, 1x Taq buffer (50 mM KCl for wild type, 95 mM KCl for mutants; full composition and pH not stated for this assay), 37 C …
pKd: −log10 of the molar value.
Readout: pKd

seq_text="CTCCAGACACGACGCAGTTGCCCGATGGTCGACGTTCGCGAAAGCGAACGTCGACCATCGGGCAACT [hairpin primer-template]" recorded_number=8.56
